- Test system: Streptococcus pneumoniae 1195 (ATCC 49619)
- protocol details: MIC, broth microdilution, SPNE 1195
- Type: cell-based
- assay context: Streptococcus pneumoniae, ATCC49619; Table 1; class symbols; read-out: MIC S PNE 1195
result type: MIC

compound="CCCCCCCCCC(=O)NC(=O)C[C@@H]1NC(=O)[C@H](NC(=O)[C@@H](CC(C)C)NC)[C@H](O)c2ccc(c(Cl)c2)Oc2cc3cc(c2O[C@@H]2O[C@H](CO)[C@@H](O)[C@H](O)[C@H]2O[C@H]2C[C@](C)(N)[C@H](O)[C@H](C)O2)Oc2ccc(cc2Cl)[C@@H](O)[C@@H]2NC(=O)[C@H](NC(=O)[C@@H]3NC1=O)c1ccc(O)c(c1)-c1c(O)cc(O)cc1[C@@H](C(=O)NC1C3CC4CC(C3)CC1C4)NC2=O (stereo partly shown) [Compound 43]" reported="0.01 to 0.5 µg/mL"

====

- Tested on: Enterococcus faecalis 848 (VRE, Van A)
- protocol details: MIC, broth microdilution, EFc 848
- Format: cell-based
- assay context: Table 1; VRE, Van A; class symbols; read-out: MIC E FC 848
result type: MIC

compound="CN[C@H](CC(C)C)C(=O)N[C@H]1C(=O)N[C@@H](CC(=O)NS(=O)(=O)c2ccc(OCCOC)cc2)C(=O)N[C@H]2C(=O)N[C@H]3C(=O)N[C@H](C(=O)N[C@H](C(=O)NC4C5CC6CC(C5)CC4C6)c4cc(O)cc(O)c4-c4cc3ccc4O)[C@H](O)c3ccc(c(Cl)c3)Oc3cc2cc(c3O[C@@H]2O[C@H](CN)[C@@H](O)[C@H](O)[C@H]2O)Oc2ccc(cc2Cl)[C@H]1O (stereo partly drawn)" reported="1 to 2 µg/mL"
compound="CCOCCOCCOc1ccc(S(=O)(=O)NC(=O)C[C@@H]2NC(=O)[C@H](NC(=O)[C@@H](CC(C)C)NC)[C@H](O)c3ccc(c(Cl)c3)Oc3cc4cc(c3O[C@@H]3O[C@H](CN)[C@@H](O)[C@H](O)[C@H]3O)Oc3ccc(cc3Cl)[C@@H](O)[C@@H]3NC(=O)[C@H](NC(=O)[C@@H]4NC2=O)c2ccc(O)c(c2)-c2c(O)cc(O)cc2[C@@H](C(=O)NC2C4CC5CC(C4)CC2C5)NC3=O)cc1 (stereo partly drawn)" reported="2 to 4 µg/mL"
compound="CCCCCCOc1ccc(S(=O)(=O)NC(=O)C[C@@H]2NC(=O)[C@H](NC(=O)[C@@H](CC(C)C)NC)[C@H](O)c3ccc(c(Cl)c3)Oc3cc4cc(c3O[C@@H]3O[C@H](CO)[C@@H](O)[C@H](O)[C@H]3O)Oc3ccc(cc3Cl)[C@@H](O)[C@@H]3NC(=O)[C@H](NC(=O)[C@@H]4NC2=O)c2ccc(O)c(c2)-c2c(O)cc(O)cc2[C@@H](C(=O)NC2C4CC5CC(C4)CC2C5)NC3=O)cc1 (stereo partly drawn)" reported="2 to 4 µg/mL"

====

- Test system: Enterococcus faecalis 101 (ATCC 29212)
- protocol details: MIC, broth microdilution, EFc 101
- Assay type: cell-based
- assay context: Enterococcus faecalis, ATCC29212; Table 2; in the presence of 0.002% Polysorbate 80; class symbols; read-out: MIC E FC 101
result type: MIC

compound="CNCCOc1ccc(C(=O)NC(=O)C[C@@H]2NC(=O)[C@H](NC(=O)[C@@H](CC(C)C)NC)[C@H](O)c3ccc(c(Cl)c3)Oc3cc4cc(c3O[C@@H]3O[C@H](CO)[C@@H](O)[C@H](O)[C@H]3O[C@H]3C[C@](C)(N)[C@H](O)[C@H](C)O3)Oc3ccc(cc3Cl)[C@@H](O)[C@@H]3NC(=O)[C@H](NC(=O)[C@@H]4NC2=O)c2ccc(O)c(c2)-c2c(O)cc(O)cc2[C@@H](C(=O)NC2C4CC5CC(C4)CC2C5)NC3=O)cc1OCCNC (stereo partly drawn) [Compound 152]" reported="0.01 to 0.5 µg/mL"
compound="CNCCOCc1cc(OCCNC)cc(C(=O)NC(=O)C[C@@H]2NC(=O)[C@H](NC(=O)[C@@H](CC(C)C)NC)[C@H](O)c3ccc(c(Cl)c3)Oc3cc4cc(c3O[C@@H]3O[C@H](CO)[C@@H](O)[C@H](O)[C@H]3O[C@H]3C[C@](C)(N)[C@H](O)[C@H](C)O3)Oc3ccc(cc3Cl)[C@@H](O)[C@@H]3NC(=O)[C@H](NC(=O)[C@@H]4NC2=O)c2ccc(O)c(c2)-c2c(O)cc(O)cc2[C@@H](C(=O)NC2C4CC5CC(C4)CC2C5)NC3=O)c1 (stereo partly drawn) [Compound 153]" reported="0.01 to 0.5 µg/mL"
compound="CN[C@H](CC(C)C)C(=O)N[C@H]1C(=O)N[C@@H](CC(=O)NC(=O)c2ccc(OCCN)c(OCCN)c2)C(=O)N[C@H]2C(=O)N[C@H]3C(=O)N[C@H](C(=O)N[C@H](C(=O)NC4C5CC6CC(C5)CC4C6)c4cc(O)cc(O)c4-c4cc3ccc4O)[C@H](O)c3ccc(c(Cl)c3)Oc3cc2cc(c3O[C@@H]2O[C@H](CO)[C@@H](O)[C@H](O)[C@H]2O)Oc2ccc(cc2Cl)[C@H]1O (stereo partly drawn) [Compound 159]" reported="0.5 to 1 µg/mL"
